# ASSAY TARGET: Free fatty acid receptor 1 (Homo sapiens)
# Sequence (O14842 whole entry): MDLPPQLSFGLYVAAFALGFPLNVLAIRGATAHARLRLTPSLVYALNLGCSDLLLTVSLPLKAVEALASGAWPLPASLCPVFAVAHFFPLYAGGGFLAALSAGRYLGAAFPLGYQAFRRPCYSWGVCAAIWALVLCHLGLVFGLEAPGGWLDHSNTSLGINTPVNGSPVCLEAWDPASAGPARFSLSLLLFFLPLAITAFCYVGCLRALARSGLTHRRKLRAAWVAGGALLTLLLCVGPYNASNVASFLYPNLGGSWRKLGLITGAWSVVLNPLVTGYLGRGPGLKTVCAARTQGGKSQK
# PROTOCOL DESCRIPTION: Agonist activity at human GPR40 expressed in CHO cells by aequorin assay
# Type: cell-based
REPORTED PROPERTY: EC50 (nM)

SAMPLE SMILES	REPORTED PROPERTY	OBSERVED MEASUREMENT
Cc1nc(-c2ccc(C(F)(F)F)cc2)sc1COc1ccc([C@H](CC(=O)O)c2ccon2)cc1	EC50	36
Cc1nc(-c2ccc(C(F)(F)F)cc2)sc1COc1ccc([C@H](CC(=O)O)c2nnnn2C)cc1	EC50	41
Cc1nc(-c2ccc(C(F)(F)F)cc2)sc1COc1ccc([C@H](CC(=O)O)c2cnco2)cc1	EC50	57
Cc1cc(Cl)ccc1-c1cccc(COc2ccc([C@H](CC(=O)O)c3nccn3C)cc2)c1	EC50	33
CC#C[C@@H](CC(=O)O)c1ccc(OCc2cccc(-c3ccc(Cl)cc3C)c2)cc1	EC50	36

###

# reported EC50; entries follow
# ASSAY TARGET: Free fatty acid receptor 1 (Homo sapiens)
# PROTOCOL DESCRIPTION: Agonist activity at human GPR40 expressed in CHO cells by aequorin assay
# Assay type: cell-based

SAMPLE SMILES	EC50
Cc1cc(Cl)ccc1-c1cccc(COc2ccc([C@H](CC(=O)O)c3ncnn3C)cc2)c1	33 nM
Cc1nc(-c2ccc(C(F)(F)F)cc2)sc1COc1ccc([C@H](CC(=O)O)c2ncco2)cc1	69 nM
Cc1cc(Cl)ccc1-c1cccc(COc2ccc([C@H](CC(=O)O)c3nnnn3C)cc2)c1	12 nM
Cc1nc(-c2ccc(C(F)(F)F)cc2)sc1COc1ccc([C@H](CC(=O)O)c2nccn2C)cc1	73 nM
Cc1nc(-c2ccc(C(F)(F)F)cc2)sc1COc1ccc([C@H](CC(=O)O)c2ncnn2C)cc1	65 nM

###

# PROTOCOL DESCRIPTION: Plasma concentration in mouse at 1 mg/kg, po measured for 4 hrs
# Format: ADME, organism-based
# Design: dose 1 mg/kg, route oral

SAMPLE SMILES	concentration at 4 h (nM)
Cc1nc(-c2ccc(C(F)(F)F)cc2)sc1COc1ccc([C@H](CC(=O)O)c2ccon2)cc1	2000

###

# ASSAY TARGET: Free fatty acid receptor 1 (Homo sapiens)
# PROTOCOL DESCRIPTION: Agonist activity at human GPR40 expressed in mouse A9 cells by inositol phosphate accumulation assay
# Format: functional, cell-based
# reported EC50; entries follow

SAMPLE SMILES	EC50 / nM
Cc1nc(-c2ccc(C(F)(F)F)cc2)sc1COc1ccc([C@H](CC(=O)O)c2cnco2)cc1	9
Cc1nc(-c2ccc(C(F)(F)F)cc2)sc1COc1ccc([C@H](CC(=O)O)c2nnnn2C)cc1	3.8
Cc1cc(Cl)ccc1-c1cccc(COc2ccc([C@H](CC(=O)O)c3nnnn3C)cc2)c1	1.3
Cc1cc(Cl)ccc1-c1cccc(COc2ccc([C@H](CC(=O)O)c3nccn3C)cc2)c1	7.6
Cc1nc(-c2ccc(C(F)(F)F)cc2)sc1COc1ccc([C@H](CC(=O)O)c2nccn2C)cc1	16
Cc1cc(Cl)ccc1-c1cccc(COc2ccc([C@H](CC(=O)O)c3ncnn3C)cc2)c1	11
Cc1nc(-c2ccc(C(F)(F)F)cc2)sc1COc1ccc([C@H](CC(=O)O)c2ccon2)cc1	3.6

###

# PROTOCOL DESCRIPTION: Oral bioavailability in cynomolgus monkey at 2 mg/kg
# Type: ADME, organism-based, Macaca fascicularis
# STUDY CONDITIONS: in vivo

SAMPLE SMILES	UNIT STRING	bioavailability
Cc1nc(-c2ccc(C(F)(F)F)cc2)sc1COc1ccc([C@H](CC(=O)O)c2ccon2)cc1	%	65

###

# PROTOCOL DESCRIPTION: Oral bioavailability in dog at 2 mg/kg
# Format: ADME, organism-based, Canis lupus familiaris
# STUDY CONDITIONS: in vivo
REPORTED PROPERTY: bioavailability

SAMPLE SMILES	REPORTED PROPERTY	OBSERVED MEASUREMENT
Cc1nc(-c2ccc(C(F)(F)F)cc2)sc1COc1ccc([C@H](CC(=O)O)c2ccon2)cc1	bioavailability	100%

###

# PROTOCOL DESCRIPTION: Half life in dog
# Assay type: ADME, organism-based, Canis lupus familiaris
# STUDY CONDITIONS: in vivo

SAMPLE SMILES	half-life, h
Cc1nc(-c2ccc(C(F)(F)F)cc2)sc1COc1ccc([C@H](CC(=O)O)c2ccon2)cc1	5.6

###

# PROTOCOL DESCRIPTION: Volume of distribution at steady state in rat
# Format: ADME, organism-based
# STUDY CONDITIONS: in vivo, read-out: Vdss

SAMPLE SMILES	Vd [L/kg]
Cc1nc(-c2ccc(C(F)(F)F)cc2)sc1COc1ccc([C@H](CC(=O)O)c2nnnn2C)cc1	3.2
Cc1nc(-c2ccc(C(F)(F)F)cc2)sc1COc1ccc([C@H](CC(=O)O)c2ccon2)cc1	0.68
CC#C[C@@H](CC(=O)O)c1ccc(OCc2cccc(-c3ccc(C(F)(F)F)cc3)c2)cc1	0.58
Cc1nc(-c2ccc(C(F)(F)F)cc2)sc1COc1ccc([C@H](CC(=O)O)c2nccn2C)cc1	0.64
Cc1cc(Cl)ccc1-c1cccc(COc2ccc([C@H](CC(=O)O)c3ncnn3C)cc2)c1	3.5
Cc1nc(-c2ccc(C(F)(F)F)cc2)sc1COc1ccc([C@H](CC(=O)O)c2ncnn2C)cc1	1.5
Cc1cc(Cl)ccc1-c1cccc(COc2ccc([C@H](CC(=O)O)c3nnnn3C)cc2)c1	14.3
Cc1cc(Cl)ccc1-c1cccc(COc2ccc([C@H](CC(=O)O)c3nccn3C)cc2)c1	0.73

###

# PROTOCOL DESCRIPTION: Clearance in rat at 0.5 mg/kg, iv
# Format: ADME, organism-based
# Parameters: dose 0.5 mg/kg, route intravenous
# STUDY CONDITIONS: in vivo

SAMPLE SMILES	clearance, mL/min/kg
Cc1cc(Cl)ccc1-c1cccc(COc2ccc([C@H](CC(=O)O)c3nccn3C)cc2)c1	5.17

###

# PROTOCOL DESCRIPTION: Oral bioavailability in rat at 2 mg/kg
# Assay type: ADME, organism-based
# STUDY CONDITIONS: in vivo

SAMPLE SMILES	UNIT STRING	bioavailability
Cc1cc(Cl)ccc1-c1cccc(COc2ccc([C@H](CC(=O)O)c3nccn3C)cc2)c1	%	48
Cc1cc(Cl)ccc1-c1cccc(COc2ccc([C@H](CC(=O)O)c3nnnn3C)cc2)c1	%	53
Cc1nc(-c2ccc(C(F)(F)F)cc2)sc1COc1ccc([C@H](CC(=O)O)c2ccon2)cc1	%	77
CC#C[C@@H](CC(=O)O)c1ccc(OCc2cccc(-c3ccc(C(F)(F)F)cc3)c2)cc1	%	84
Cc1nc(-c2ccc(C(F)(F)F)cc2)sc1COc1ccc([C@H](CC(=O)O)c2nnnn2C)cc1	%	6.7
Cc1cc(Cl)ccc1-c1cccc(COc2ccc([C@H](CC(=O)O)c3ncnn3C)cc2)c1	%	18

###

# PROTOCOL DESCRIPTION: Half life in cynomolgus monkey
# Assay type: ADME, organism-based, Macaca fascicularis
# STUDY CONDITIONS: in vivo
REPORTED PROPERTY: half-life (h)

SAMPLE SMILES	REPORTED PROPERTY	OBSERVED MEASUREMENT
Cc1nc(-c2ccc(C(F)(F)F)cc2)sc1COc1ccc([C@H](CC(=O)O)c2ccon2)cc1	half-life	14
